Record form. Attribute: pEC50. Fill in for each entry.
Target: human GcgR (Homo sapiens, UniProt P47871)
Sequence (P47871 26-477): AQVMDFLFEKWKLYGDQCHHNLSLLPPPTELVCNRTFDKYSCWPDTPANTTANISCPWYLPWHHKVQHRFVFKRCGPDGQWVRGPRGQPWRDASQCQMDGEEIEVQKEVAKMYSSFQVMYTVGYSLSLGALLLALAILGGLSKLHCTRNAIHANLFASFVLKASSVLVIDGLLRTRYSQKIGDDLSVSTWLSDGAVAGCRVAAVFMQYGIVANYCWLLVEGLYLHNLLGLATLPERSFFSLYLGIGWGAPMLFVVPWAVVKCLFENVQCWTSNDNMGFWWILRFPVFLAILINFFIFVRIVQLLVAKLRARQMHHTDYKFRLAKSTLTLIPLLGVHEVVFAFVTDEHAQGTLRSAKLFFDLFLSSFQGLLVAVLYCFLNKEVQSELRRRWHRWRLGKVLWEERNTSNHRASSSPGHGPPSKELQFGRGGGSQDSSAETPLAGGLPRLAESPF
Assay: Functional cAMP activity in the presence of 1% HSA
Type: cell-based
Details: read-out: cAMP Rel EC50, hGcgR
Starred links: 1 amine or outer side, 2 acyl side, 3 side chain; linkers in the order of their positions; H or OH if unused. Non-standard residues stand in square brackets, D forms with d. Groups on a side chain read outwards from the residue. No end group written: not given here. *: point of attachment. C18 diacid = O=C(O)CCCCCCCCCCCCCCCCC(=O)*; αMePhe(2-F) = C[C@](N)(Cc1ccccc1F)C(=O)O; γGlu = O=C(O)[C@H](CCC(=O)[*:2])N[*:1]; αMe4Pal = C[C@](N)(Cc1ccncc1)C(=O)O; αMeY = C[C@](N)(Cc1ccc(O)cc1)C(=O)O; 4Pal = N[C@@H](Cc1ccncc1)C(=O)O; αMeL = CC(C)C[C@](C)(N)C(=O)O; αMeS = C[C@](N)(CO)C(=O)O; Orn = NCCC[C@H](N)C(=O)O; AEEA = NCCOCCOCC(=O)O; Aib = CC(C)(N)C(=O)O
Answers are plain numbers, as −log10 of the molar value.

- substance: "H-Y[Aib]QGT[αMePhe(2-F)]TSDYSILLDKK([γGlu-γGlu-C18 diacid])AQ[Aib]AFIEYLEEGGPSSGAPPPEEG-NH2 [Example 471]"
  pEC50: 6.74
- substance: "H-Y[Aib]QGT[αMePhe(2-F)]TSD[4Pal][αMeS]I[αMeL]LD[Orn]K([γGlu-γGlu-C18 diacid])AQ[Aib][Orn]FI[dE][αMeY]LSEGGPSSGEPPPSGGE-NH2 [Example 559]"
  pEC50: 6.49
- substance: "H-Y[Aib]QGTFTSDFS[Orn][αMeL]LDKK([γGlu-AEEA-γGlu-C18 diacid])AQ[Aib]AFIEYLLE[Aib]GPSSGAPPPSGT-NH2 [Example 276]"
  pEC50: 6.95
- substance: "Y[Aib]QGT[αMePhe(2-F)]TSD[4Pal][αMeS]ILLD[Orn]K([γGlu-γGlu-C18 diacid])AQ[Aib][Orn]FI[dE][αMeY]LQEGGPSSGEPPPEGAE-NH2 [Example 546]"
  pEC50: 6.65

Could you report pEC50 for every entry in the following list?
1. H-Y[Aib]QGT[αMePhe(2-F)]TSDYSILLDKK([AEEA-γGlu-C18 diacid])AQ[Aib]AFIEFLEEGGPSSGAPPPSEG-NH2 [Example 412]
2. H-Y[Aib]QGT[αMePhe(2-F)]TSD[4Pal][αMeS]I[αMeL]LD[Orn]K([γGlu-γGlu-C18 diacid])AQ[Aib][Orn]FI[dE][αMeY]LAEGGPSSGEPPPSGSEE-NH2 [Example 589]
3. H-Y[Aib]QGT[αMePhe(2-F)]TSD[4Pal][αMeS]I[αMeL]LD[Orn]K([γGlu-γGlu-C18 diacid])AQ[αMe4Pal]EFI[dE][αMeY]LIEGGPSSGEPPPSGGGE-NH2 [Example 744]

1: 6.33; 2: 6.54; 3: 6.95

src = patent US20240270821A1
